- system_under_test: BChE (Equus caballus, UniProt P81908)
- Construct: purchased Sigma-Aldrich, Hamburg, Germany; host or cells: equine serum
- Sequence (P81908 whole entry): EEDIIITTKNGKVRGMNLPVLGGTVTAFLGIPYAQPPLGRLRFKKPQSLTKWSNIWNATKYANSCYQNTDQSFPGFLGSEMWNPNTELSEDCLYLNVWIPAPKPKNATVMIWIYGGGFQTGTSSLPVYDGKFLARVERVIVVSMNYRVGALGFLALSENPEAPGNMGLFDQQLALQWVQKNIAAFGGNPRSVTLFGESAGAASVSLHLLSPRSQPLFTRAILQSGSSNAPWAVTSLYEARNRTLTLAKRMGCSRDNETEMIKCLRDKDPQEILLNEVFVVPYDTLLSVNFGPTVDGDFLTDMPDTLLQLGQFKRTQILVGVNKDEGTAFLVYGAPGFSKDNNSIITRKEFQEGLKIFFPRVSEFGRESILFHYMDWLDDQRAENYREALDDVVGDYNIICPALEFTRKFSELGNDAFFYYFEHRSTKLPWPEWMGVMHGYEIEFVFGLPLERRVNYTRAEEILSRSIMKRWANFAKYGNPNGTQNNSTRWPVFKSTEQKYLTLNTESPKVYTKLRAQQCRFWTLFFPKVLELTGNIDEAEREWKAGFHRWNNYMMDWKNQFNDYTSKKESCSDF
- test_name: biochemical
- recorded_conditions: read-out: Inhibition Activity 200 µM BChE
- Method: AChE and BChE inhibitory activity of the newly synthesized pyrrole-based compounds was measured using the microplate assay described by Ellman et al. with the modifications added by López et al.. The compounds were tested at concentrations between 0.01 and 200 μM. […] Enzyme activity was calculated as an inhibition percentage compared to an assay including buffer instead of an inhibitor.
endpoint_name: inhibition at 200 µM (%)
Field: numeric (%). Do not append units.

Given Cc1ccc(C)n1-c1ccc(O)cc1 , state its recorded inhibition at 200 µM.
53.9

Given COc1ccc(C)cc1-n1c(C)ccc1C , state its recorded inhibition at 200 µM.
74

Given COc1ccc2c3c1O[C@H]1C[C@@H](O)C=C[C@@]31CCN(C)C2 [Galanthamine, reference compound] , state its recorded inhibition at 200 µM.
89.2

Given CCC(C(=O)O)n1c(C)ccc1C (stereo not shown) , state its recorded inhibition at 200 µM.
0

###

This listing pairs compounds with measured inhibition at 1 µM.
- system_under_test: recombinant human MAO-B (hMAOB) (Homo sapiens, UniProt P27338)
- test_name: biochemical
- Type: biochemical
- recorded_conditions: 1 µM compound
Report as: number unit

- Cc1ccc(C)n1-c1ccc(CC(=O)O)cc1 [EM-DC-27]: 50%
- Cc1ccc(C)n1CCc1ccc(O)cc1 [EM-DC-9]: 98%
- Cc1ccc(C)n1-c1ccc(C(=O)O)cc1O [EM-DC-17]: 99%
- Cc1ccc(C)n1CC(O)c1ccc(O)cc1 (centres unmarked) [EM-DC-10]: 99%
- CCC(C)Cn1c(C)ccc1C (centres unmarked) [EM-DC-26]: 97%

Consider the record given below.
Given Cc1ccc(C)n1C(CS)C(=O)O (centres unmarked) [EM-DC-15] , state its recorded inhibition at 1 µM.
70%

###

- system_under_test: recombinant human MAO-B (hMAOB) (Homo sapiens, UniProt P27338)
- Sequence (P27338 1-520): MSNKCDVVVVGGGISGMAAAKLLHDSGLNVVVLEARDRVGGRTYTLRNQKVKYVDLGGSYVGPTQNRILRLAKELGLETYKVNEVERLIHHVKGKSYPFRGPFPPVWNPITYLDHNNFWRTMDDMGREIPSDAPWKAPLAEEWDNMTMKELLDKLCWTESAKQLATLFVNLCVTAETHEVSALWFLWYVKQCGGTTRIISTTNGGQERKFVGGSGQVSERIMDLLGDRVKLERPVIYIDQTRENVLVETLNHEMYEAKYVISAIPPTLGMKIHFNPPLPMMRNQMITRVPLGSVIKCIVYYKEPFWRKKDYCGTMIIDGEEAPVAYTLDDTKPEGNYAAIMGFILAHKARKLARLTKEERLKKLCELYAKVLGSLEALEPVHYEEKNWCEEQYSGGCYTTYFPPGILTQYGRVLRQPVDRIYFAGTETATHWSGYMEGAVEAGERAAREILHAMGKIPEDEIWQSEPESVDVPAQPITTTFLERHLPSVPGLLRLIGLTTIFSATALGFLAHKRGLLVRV
- test_name: biochemical
- recorded_conditions: means ± SD of three experiments
pIC50: −log10 of the molar value.
This listing pairs compounds with measured pIC50.

• Cc1ccc(C)n1-c1ccc(O)cc1 = < 4.00
• Cc1ccc(C)n1-c1ccc2c(c1)OCO2 = < 4.00
• COc1ccc(C)cc1-n1c(C)ccc1C = < 4.00

Given Cc1ccc(C)n1CCc1ccc(Cl)cc1 , state its recorded pIC50.
< 4.00

Given Cc1ccc(C)n1C(Cc1ccc(O)c(O)c1)C(=O)O (centres unmarked) , state its recorded pIC50.
< 4.00

Given Cc1ccc(C)n1C(CO)C(=O)O (centres unmarked) , state its recorded pIC50.
< 4.00

Given Cc1ccc(C)n1C(CS)C(=O)O (centres unmarked) , state its recorded pIC50.
6.28

###

AChE (Electrophorus electricus): reported IC50 for various compounds.

Given Cc1ccc(C)n1-c1ccc(C(=O)O)cc1O , state its recorded IC50.
> 200 µM

Given Cc1ccc(C)n1C(C)(C)CO , state its recorded IC50.
> 200 µM

Given Cc1ccc(C)n1-c1ccccc1Br , state its recorded IC50.
> 200 µM

###

- system_under_test: recombinant human MAO-A (hMAOA) (Homo sapiens)
- Sequence (P21397 whole entry): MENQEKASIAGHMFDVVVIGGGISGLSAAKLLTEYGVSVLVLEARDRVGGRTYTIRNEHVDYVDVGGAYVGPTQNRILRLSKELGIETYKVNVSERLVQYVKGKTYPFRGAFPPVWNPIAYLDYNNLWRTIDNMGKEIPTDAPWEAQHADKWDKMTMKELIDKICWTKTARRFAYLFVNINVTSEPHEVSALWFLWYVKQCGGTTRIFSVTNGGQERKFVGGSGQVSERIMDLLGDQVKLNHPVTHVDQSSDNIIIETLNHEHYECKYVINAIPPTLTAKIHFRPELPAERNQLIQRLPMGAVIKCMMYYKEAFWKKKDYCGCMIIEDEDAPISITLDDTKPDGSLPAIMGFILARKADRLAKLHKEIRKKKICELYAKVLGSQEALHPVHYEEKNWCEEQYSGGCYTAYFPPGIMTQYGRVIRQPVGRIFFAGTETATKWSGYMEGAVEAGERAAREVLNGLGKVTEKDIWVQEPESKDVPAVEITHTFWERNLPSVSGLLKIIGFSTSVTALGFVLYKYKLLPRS
- test_name: MAO-A inhibition, fluorometric Amplex UltraRed assay
- Format: biochemical
- recorded_conditions: 1 µM compound; read-out: Inhibition Activity 1 µM MAO-A
- Description: Monoamine oxidase (MAO) activity for both recombinant human MAO-A (hMAOA) and MAO-B (hMAOB) was assessed using a fluorometric assay based on the Amplex® UltraRed reagent. […] As this enzymatic reaction proceeded continuously, the fluorescence signal was recorded every 30 min (at 0, 30, 60, 90, 120, and 150 min) to track enzymatic kinetics.
endpoint_name: inhibition at 1 µM (%)
Field: numeric (%). Do not append units.

# count of solved cases: 2
* Cc1ccc(C)n1CCc1ccccc1 | 80
* Cc1ccc(C)n1CCc1ccc(Cl)cc1 | 99

Given Cc1ccc(C)n1-c1ccc(C(=O)O)cc1 , state its recorded inhibition at 1 µM.
75

Given CCC(C(=O)O)n1c(C)ccc1C (stereo not drawn) , state its recorded inhibition at 1 µM.
99

Given Cc1ccc(C)n1C(Cc1ccc(O)cc1)C(=O)O (stereo not drawn) , state its recorded inhibition at 1 µM.
75

Given Cc1ccc(C)n1CCN1CCOCC1 , state its recorded inhibition at 1 µM.
80

###

- system_under_test: BChE (Equus caballus, UniProt P81908)
- Construct: purchased Sigma-Aldrich, Hamburg, Germany; host or cells: equine serum
- test_name: biochemical
- recorded_conditions: read-out: Inhibition Activity 200 µM BChE
This listing pairs molecules with measured inhibition at 200 µM.
Field: numeric (%). Do not append units.

# count of solved cases: 8
* Cc1ccc(C)n1C(Cc1ccc(O)cc1)C(=O)O (centres unmarked) | 0
* Cc1ccc(C)n1-c1ccncc1 | 73.2
* Cc1ccc(C)n1C(C)(C)CO | 0
* Cc1ccc(C)n1CCc1ccc(Cl)cc1 | 35.4
* Cc1cc(-n2c(C)ccc2C)c2ccccc2n1 | 83.8
* Cc1ccc(C)n1C(CO)C(=O)O (centres unmarked) | 0
* Cc1ccc(C)n1-c1ccc2c(c1)OCO2 | 36.3
* Cc1ccc(C)n1-c1ccccc1Br | 0.04

Please provide the recorded inhibition at 200 µM for Cc1ccc(C)n1CCN1CCOCC1 , tested on BChE (Equus caballus, UniProt P81908).
48.8

Please provide the recorded inhibition at 200 µM for Cc1ccc(C)n1CCc1ccc(O)cc1 , tested on BChE (Equus caballus, UniProt P81908).
73.7

Please provide the recorded inhibition at 200 µM for Cc1ccc(C)n1-c1ccc(O)c(C(=O)O)c1 , tested on BChE (Equus caballus, UniProt P81908).
0

###

This listing pairs compounds with measured inhibition at 1 µM.
- system_under_test: recombinant human MAO-B (hMAOB) (Homo sapiens)
- Sequence (P27338 1-520): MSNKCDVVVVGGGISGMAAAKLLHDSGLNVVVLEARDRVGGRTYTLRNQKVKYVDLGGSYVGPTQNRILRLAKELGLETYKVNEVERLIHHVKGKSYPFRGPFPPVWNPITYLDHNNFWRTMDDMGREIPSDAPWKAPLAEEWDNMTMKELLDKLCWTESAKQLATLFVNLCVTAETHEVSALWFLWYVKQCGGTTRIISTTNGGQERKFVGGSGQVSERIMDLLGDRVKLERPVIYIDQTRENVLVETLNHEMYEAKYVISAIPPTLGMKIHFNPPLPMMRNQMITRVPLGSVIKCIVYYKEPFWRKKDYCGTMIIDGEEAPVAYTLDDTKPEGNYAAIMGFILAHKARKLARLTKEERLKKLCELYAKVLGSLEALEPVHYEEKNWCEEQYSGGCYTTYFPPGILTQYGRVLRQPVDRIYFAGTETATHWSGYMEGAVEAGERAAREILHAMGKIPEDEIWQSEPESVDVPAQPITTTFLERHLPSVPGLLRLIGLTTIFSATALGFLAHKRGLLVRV
- test_name: biochemical
- Assay type: biochemical
- recorded_conditions: 1 µM compound
Field: numeric (%). Do not append units.

# count of solved cases: 5
* Cc1ccc(C)n1CCc1ccc(Cl)cc1 | 99
* Cc1ccc(C)n1CCc1ccccc1 | 75
* COc1ccc(C)cc1-n1c(C)ccc1C | 99
* Cc1ccc(C)n1-c1ccc(Br)cc1 | 98
* Cc1ccc(C)n1C(Cc1cnc[nH]1)C(=O)O (stereo not drawn) | 50

Consider the record given below.
Given Cc1ccc(C)n1C1CCN(Cc2ccccc2)CC1 , state its recorded inhibition at 1 µM.
98

###

- system_under_test: AChE (Electrophorus electricus, UniProt O42275)
- Construct: purchased Sigma-Aldrich, Hamburg, Germany
- Sequence (O42275 24-633): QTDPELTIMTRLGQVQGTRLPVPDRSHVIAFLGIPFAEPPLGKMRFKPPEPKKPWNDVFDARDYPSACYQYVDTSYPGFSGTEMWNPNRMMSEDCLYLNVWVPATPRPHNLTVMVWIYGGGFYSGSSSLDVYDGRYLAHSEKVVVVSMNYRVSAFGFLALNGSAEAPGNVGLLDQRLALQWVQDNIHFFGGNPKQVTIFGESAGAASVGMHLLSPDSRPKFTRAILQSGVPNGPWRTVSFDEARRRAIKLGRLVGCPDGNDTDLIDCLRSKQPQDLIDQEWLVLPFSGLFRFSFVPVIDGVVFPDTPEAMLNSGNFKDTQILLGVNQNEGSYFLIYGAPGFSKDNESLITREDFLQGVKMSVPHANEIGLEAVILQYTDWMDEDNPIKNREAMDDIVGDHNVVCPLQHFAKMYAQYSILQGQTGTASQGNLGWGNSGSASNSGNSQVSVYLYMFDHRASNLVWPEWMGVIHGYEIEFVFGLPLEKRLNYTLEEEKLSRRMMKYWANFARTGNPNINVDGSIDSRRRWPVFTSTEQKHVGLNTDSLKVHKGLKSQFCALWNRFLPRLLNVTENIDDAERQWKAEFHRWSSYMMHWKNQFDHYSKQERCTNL
- test_name: biochemical
- Type: biochemical
- recorded_conditions: 200 µM compound
Categorized via inhibition at 200 µM: lower segment: < 10%; middle segment: ≥ 10% and < 60%; upper segment: ≥ 60%

* Cc1ccc(C)n1-c1ccncc1 [EM-DC-12, 4-(2,5-dimethyl-1H-pyrrol-1-yl)pyridine] | upper segment

Let us examine a further case.
Using the reported inhibition at 200 µM, which band applies to Cc1ccc(C)n1-c1ccc(Br)cc1 [EM-DC-4] ?
lower segment
